The values you see were collected from ChEMBL document CHEMBL3525899.

tested on: Liver microsome; assay: Drug metabolism in pooled human liver microsomes assessed as formation of (3-methyl-4-(2-(piperazin-1-yl)phenylthio)phenyl)methanol after 30 mins by Michaelis-Menten plot analysis in presence of NADPH regenerating system with NADP+; format: ADME; details: 0.5 h, read-out: Km(app)
endpointLabel: Km
# include the unit after the value

Reported Km ( Br.Cc1ccc(Sc2ccccc2N2CCNCC2)c(C)c1 [VORTIOXETINE HYDROBROMIDE] ) = 231 µM

====

test system: Liver microsome; test: Drug level in phenotyped human liver microsomes treated with Lu AA21004 at 8 to 50 uM after 60 mins by HPLC/MS-MS analysis in presence of NADPH regenerating system with NADP+; assay type: ADME; settings: 1 h
endpointLabel: Drug metabolism

Cc1cc(CO)ccc1Sc1ccccc1N1CCNCC1 :: metabolite_detected
Cc1ccc(Sc2cc([O-])ccc2N2CCNCC2)c(C)c1.[Na+] :: metabolite_detected
Cc1ccc(Sc2ccccc2N2CCN(O)CC2)c(C)c1 :: metabolite_detected
Cc1ccc([S+]([O-])c2ccccc2N2CCNCC2)c(C)c1.O=C(O)/C=C/C(=O)O (stereo not given) :: metabolite_detected

Reported Drug metabolism ( `Cc1cc(C(=O)O)ccc1Sc1ccccc1N1CCNCC1` ) = metabolite_detected
